biological target: GSK 3α enzyme isoform (Homo sapiens); assay: GSK 3α enzyme inhibition (Z-LYTE FRET); details: Table 2A; read-out: IC50 Values for Enzyme Inhibition GSK3α
Sequence (P49840 whole entry, canonical isoform): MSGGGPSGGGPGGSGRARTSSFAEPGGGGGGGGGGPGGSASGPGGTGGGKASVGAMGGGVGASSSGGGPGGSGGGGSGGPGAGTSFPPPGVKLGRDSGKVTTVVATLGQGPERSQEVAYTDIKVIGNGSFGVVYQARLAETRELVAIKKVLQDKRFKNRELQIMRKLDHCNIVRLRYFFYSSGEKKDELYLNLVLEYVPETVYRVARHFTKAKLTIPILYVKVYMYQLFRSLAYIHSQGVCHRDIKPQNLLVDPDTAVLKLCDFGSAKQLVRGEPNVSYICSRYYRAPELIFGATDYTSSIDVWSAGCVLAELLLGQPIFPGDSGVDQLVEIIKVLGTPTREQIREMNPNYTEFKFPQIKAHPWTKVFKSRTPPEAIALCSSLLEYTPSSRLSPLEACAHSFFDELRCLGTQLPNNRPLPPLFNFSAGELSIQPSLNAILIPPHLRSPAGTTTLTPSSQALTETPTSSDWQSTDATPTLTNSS
pIC50: −log10 of the molar value.
quantity kind: pIC50

- compound: "Cc1ccc(-n2nc(C(C)(C)C)cc2NC(=O)Nc2ccc(OCc3ccnc(Nc4cncc(C5CCC5)n4)c3)c3ccccc23)cc1 [Example 47]"
  assay target: "GSK 3α enzyme isoform (Homo sapiens)"
  quantity kind: "pIC50"
  val: 5.55

I. CNC(=O)Cc1cncc(Nc2cc(COc3ccc(NC(=O)Nc4cc(C(C)(C)C)nn4-c4ccc(C)cc4)c4ccccc34)ccn2)n1 [Example 28]
II. CC(C)(C)c1cc(NC(=O)Nc2ccc(OCc3ccnc(Nc4cnccn4)c3)c3ccccc23)n(-c2ccc(Cl)cc2)n1 [Example 45]
Asked: Which has the higher pIC50, I or II ? Kindly state the label of the option you pick.
Given back: II
